# Lookup of reported growth inhibition keyed by entry
# Run Description: NCI Yeast Anticancer Drug Screen. Data for the rad50 strain (AID 155);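 note: 0% = growth of vehicle-only cultures of the same strain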
# Details: S. cerevisiae rad50 strain growth inhibition; at 50.0 µM; hits give high values
About 79,000 compounds went through this panel and 15% of them were active in at least one assay; those are over-represented in the sample as a whole.
# unit: % | format: bare number

COC(=O)c1ccc(N(C)CCC(=O)COC(C)=O)cc1
17.9

Entry COc1ccc(/C(=N\N=C(N)N)C(c2ccc(OC)cc2)C2OC(=O)c3ccccc32)cc1 (stereo not drawn) has what growth inhibition?
-12.2

Another molecule to look at: CNCSc1ccccc1
-6.6

Next: COC(=O)C1Cc2ccccc2C1=O (stereo not drawn)
-1.75

What do you have for Cc1ccc(NC(=O)c2ccc(Cl)cc2)cc1Cl ?
18.9

Try this molecule next: COC(=O)C1C(O)C(C)C(O)C(C)(O)C=C(C)C2=C3C(=C(C)C(=O)c4c(O)c(c(C)c(OC(C)=O)c43)NC(=O)C(C)=C/C=C\C(C)(O)C(O)C(C)C1O)OCO2 (stereo not drawn)
14.3

Okay, and COc1ccc(-c2cc(-c3ccc(C)cc3)n(C3OC(COC(C)=O)C(OC(C)=O)C(OC(C)=O)C3OC(C)=O)c(=S)c2C#N)cc1 (stereo not drawn) ?
-10.6

Another molecule to look at: O=C(O)COc1ccccc1Cl
34.6

###

Each record here notes measured growth inhibition.
# Run Description: NCI Yeast Anticancer Drug Screen. Data for the mlh1 rad18 strain (AID 175)
# Details: S. cerevisiae mlh1 rad18 strain growth inhibition; at 50.0 µM; hits give high values
This is part of a sample that, as a whole, favours compounds with a hit. Of some 79,000 tested, about 15% had one in any assay.
Your answer is read as %, so omit the unit and give the number.

Sample answers from the record:
Cc1c(-c2ccccc2)nnn1-c1ccc(F)c(Cl)c1
-12.4
Cc1ccc(CCCC(=O)O)cc1C
-13.8
CCCSc1n[nH]c(=S)c2nc[nH]c12
-1.15
C=Cc1ccc(-c2ccccc2)cc1
-0.65
O=C1COc2cc(O)cc(O)c21
7.75

For the compound N#CC1=C(O)NC(O)=C(C#N)C12C(=O)Nc1ccccc12 , what growth inhibition is on record?
10.3

Next record, please: CCCCCCCCCCCCCCCCCC(=O)N/N=C\c1ccc(O)c(OC)c1
6.5

Input O=C1c2ccccc2C2CC1c1ccccc12 (stereo not drawn)
-5.4

###

# Run Description: NCI Yeast Anticancer Drug Screen. Data for the sgs1 mgt1 strain (AID 161);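 note: 0% = growth of cultures given vehicle only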
# Details: S. cerevisiae sgs1 mgt1 strain, at 50.0 µM, hits give high values
About 79,000 compounds went through this panel and 15% of them were active in at least one assay; those are over-represented in the sample as a whole.
growth inhibition below 10% gives no (0); growth inhibition at or above it gives yes (1).

O=C1c2ccccc2-c2ccc3c4ccc5c6c(ccc(c7ccc1c2c73)c64)-c1ccccc1C5=O
yes (1)
O=C1C(OCc2ccccc2)=C(OCc2ccccc2)C(=O)c2ccccc21
yes (1)
CC1=Cc2cc3[n-]c(cc4nc(cc5[n-]c(cc1n2)c(C)c5CCC(=O)O)C(CCC(=O)O)=C4C)cc3C.[Cu+2]
yes (1)
NC(=O)C1CCCCC1C(N)=O (stereo unspecified)
no (0)
COc1ccc(N/N=C2\CCOc3ccc(C)cc3C2=O)cc1
yes (1)
CCCCCCCCCCCCCCCCCCCCOC1OC(COC(C)=O)C(OC(C)=O)C(OC(C)=O)C1OC(C)=O (stereo unspecified)
no (0)
COc1c(O)ccc(/C=N/NC(=S)NCOCCOC(C)=O)c1OC
no (0)
CSc1nnc(SC)s1
no (0)
CN1CCCC1c1cccnc1.O=C(O)c1ccccc1O.O=C([O-])c1ccccc1[OH2+].O=C([O-])c1ccccc1[OH2+].[Mn+2] (stereo unspecified)
no (0)

// inclusive: growth inhibition at least 10%? input: COC(=O)C(c1ccccc1)S(=O)(=O)c1ccccc1 (stereo unspecified)
no (0)
